Value source: the supplement of paper PMC6757056

B1: library; a variant is named by its letters at N, in order (parent)
chain: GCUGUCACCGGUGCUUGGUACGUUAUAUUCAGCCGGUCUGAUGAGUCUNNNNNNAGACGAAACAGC

# Variants of: B1
# procedureDetails: normalized RNA/DNA level with ligand (relative to sTRSVctl = 100) (log10 (% of sTRSVctl)); HEK293T overexpressing SLC46A1; ligand concentration (+) RNA-Seq: 6 mM; higher = less ribozyme self-cleavage, higher mRNA level
# protocolConditions: with (6R,S)-folinic acid; ligand present: yes
valueType: normalized RNA/DNA level with ligand (log10)

GCUGUG 2.04
CUCAGA 2.03
CGACUU 2.05
ACAGGC 2.01
CAAUAA 1.97

Requested field: normalized RNA/DNA level with ligand (log10). Item: UAAAGA
1.99

# get_value(readout='normalized RNA/DNA level with ligand (log10)', item= AUCCCG )
2.01

Entry CUCCAA has what normalized RNA/DNA level with ligand (log10)?
2.02
